# MEASUREMENT TARGET: T1, UL128 expressed from MVA in BHK-21 cells (human cytomegalovirus, UniProt P16837 28-171)
# T1 construct: whole, on cells
# T1 sequence: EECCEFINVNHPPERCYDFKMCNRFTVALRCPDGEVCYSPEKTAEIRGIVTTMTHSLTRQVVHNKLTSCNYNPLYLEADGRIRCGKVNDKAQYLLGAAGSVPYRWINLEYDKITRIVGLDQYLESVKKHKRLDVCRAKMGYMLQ
# MEASUREMENT NOTES: intracellular FC, MVA-infected BHK-21

BINDER: 1B2 (antibody, V domains shown, also called NAb 1B2) VH: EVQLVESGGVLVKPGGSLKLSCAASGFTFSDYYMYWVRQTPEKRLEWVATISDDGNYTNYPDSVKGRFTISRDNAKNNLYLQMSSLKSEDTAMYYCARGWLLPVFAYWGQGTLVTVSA VL: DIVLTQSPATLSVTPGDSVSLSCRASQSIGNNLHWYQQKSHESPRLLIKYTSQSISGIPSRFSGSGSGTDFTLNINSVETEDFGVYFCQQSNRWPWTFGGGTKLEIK
binding result: no binding
--
BINDER: 21E9 (antibody, V domains shown, also called NAb 21E9) VH: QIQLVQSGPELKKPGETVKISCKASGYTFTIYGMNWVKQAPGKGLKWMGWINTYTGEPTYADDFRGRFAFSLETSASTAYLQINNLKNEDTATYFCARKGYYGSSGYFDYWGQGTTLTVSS VL: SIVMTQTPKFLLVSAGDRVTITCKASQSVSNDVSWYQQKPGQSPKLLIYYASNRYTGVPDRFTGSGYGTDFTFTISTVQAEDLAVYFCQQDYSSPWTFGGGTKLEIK
binding result: no binding
--
BINDER: 62-11 (antibody, V domains shown, also called NAb 62-11) VH: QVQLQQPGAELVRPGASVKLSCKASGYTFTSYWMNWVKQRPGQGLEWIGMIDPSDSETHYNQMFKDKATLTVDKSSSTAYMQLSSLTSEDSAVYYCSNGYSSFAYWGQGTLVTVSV VL: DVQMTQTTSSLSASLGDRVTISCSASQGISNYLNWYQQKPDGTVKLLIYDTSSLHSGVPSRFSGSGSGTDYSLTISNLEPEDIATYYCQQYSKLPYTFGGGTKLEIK
binding result: no binding

These data points were gathered from patent US20180230200A1.
